assay: Half life in simulated gastric fluid at 20 uM by LC-MS/MS analysis; assay type: ADME
property: half-life at 20 µM

| structure | half-life at 20 µM |
| --- | --- |
| CC(=O)NCCCC[C@H](NC(=O)[C@](C)(CCCN)NC(=O)[C@H](Cc1ccc2ccccc2c1)NC(=O)[C@H](Cc1ccc(OCCN)cc1)NC(=O)[C@@H]1CSCC[C@H](NC(C)=O)C(=O)N[C@@H](CCC(N)=O)C(=O)N[C@@H]([C@@H](C)O)C(=O)N[C@@H](Cc2c[nH]c3ccccc23)C(=O)N[C@@H](CCC(N)=O)C(=O)N1)C(=O)N[C@@H](CC(N)=O)C(=O)NCC(N)=O | 3 to 6 h |
| COc1ccc(C[C@H](NC(=O)[C@@H]2CSCC[C@H](NC(=O)[C@@H](CCCCN)NC(C)=O)C(=O)N[C@@H](CCC(N)=O)C(=O)N[C@@H]([C@@H](C)O)C(=O)N[C@@H](Cc3c[nH]c4ccccc34)C(=O)N[C@@H](CCC(N)=O)C(=O)N2)C(=O)N[C@@H](Cc2ccc3ccccc3c2)C(=O)N[C@@](C)(CC(C)C)C(=O)N[C@@H](CCC(=O)O)C(=O)N[C@@H](CC(N)=O)C(=O)NCC(N)=O)cc1 | < 1 h |

Exam item: Which half-life at 20 µM is reported for this molecule? CC(=O)NCCCC[C@H](NC(=O)C1(NC(=O)[C@H](Cc2ccc3ccccc3c2)NC(=O)[C@H](Cc2ccc(C(N)=O)cc2)NC(=O)[C@@H](NC(=O)[C@H](CCC(N)=O)NC(=O)[C@H](Cc2c[nH]c3ccccc23)NC(=O)[C@@H](NC(=O)[C@H](CC(N)=O)NC(=O)[C@@H](NC(C)=O)C(C)(C)S)[C@@H](C)O)C(C)(C)S)CCCC1)C(=O)N[C@@H](CC(N)=O)C(=O)N[C@@H](CC(N)=O)C(N)=O
Marked response: > 6 h

====

Target: UniProtKB Q5VWK5
Sequence (Q5VWK5 whole entry): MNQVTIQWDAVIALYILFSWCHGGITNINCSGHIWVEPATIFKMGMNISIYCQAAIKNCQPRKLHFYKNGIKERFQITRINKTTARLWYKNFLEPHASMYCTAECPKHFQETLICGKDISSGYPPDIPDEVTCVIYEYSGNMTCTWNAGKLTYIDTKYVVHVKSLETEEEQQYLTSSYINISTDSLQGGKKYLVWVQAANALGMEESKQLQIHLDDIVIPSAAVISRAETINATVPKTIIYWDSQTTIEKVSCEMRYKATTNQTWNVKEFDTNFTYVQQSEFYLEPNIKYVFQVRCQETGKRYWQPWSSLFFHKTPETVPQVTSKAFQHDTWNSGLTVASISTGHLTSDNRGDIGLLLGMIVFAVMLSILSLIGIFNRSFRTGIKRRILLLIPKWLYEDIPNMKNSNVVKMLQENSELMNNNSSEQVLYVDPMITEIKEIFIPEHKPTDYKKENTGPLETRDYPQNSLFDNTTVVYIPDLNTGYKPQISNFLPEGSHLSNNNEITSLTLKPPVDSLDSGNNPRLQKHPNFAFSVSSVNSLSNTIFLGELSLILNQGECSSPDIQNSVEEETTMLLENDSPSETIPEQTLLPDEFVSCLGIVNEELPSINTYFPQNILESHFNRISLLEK
Assay: Inhibition of interleukin-23 binding to human interleukin-23 receptor incubated for 2 hrs by competitive binding ELISA
Where a SMILES comes first, the peptide text is derived from it.
property: IC50

| compound | IC50 |
| --- | --- |
| CC(=O)N[C@@H](CS)C(=O)N[C@@H](CCCNC(N)=O)C(=O)N[C@H](C(=O)N[C@@H](Cc1c[nH]c2ccccc12)C(=O)N[C@@H](CCC(N)=O)C(=O)N[C@@H](CS)C(=O)N[C@@H](Cc1ccc(O)cc1)C(=O)N[C@@H](Cc1c[nH]c2ccccc12)C(=O)N[C@@H](CCCNC(=N)N)C(=O)N[C@H](C(=O)N[C@@H](Cc1ccccc1)C(=O)NCC(=O)NCCC(=O)N[C@H](CCCCN)C(N)=O)C(C)C)[C@@H](C)O | 0.05 µM |
| CC(=O)N[C@@H](CCC(=O)O)C(=O)N[C@H]1CCSC[C@@H](C(=O)N[C@@H](Cc2ccc(OCCN)cc2)C(=O)N[C@@H](Cc2ccc3ccccc3c2)C(=O)N[C@@](C)(CCCCN)C(=O)N[C@@H](CCC(=O)O)C(=O)N[C@@H](CC(N)=O)C(=O)N[C@@H](CC(N)=O)C(N)=O)NC(=O)[C@H](CCC(N)=O)NC(=O)[C@H](Cc2c[nH]c3ccccc23)NC(=O)[C@H]([C@@H](C)O)NC(=O)[C@H](CCC(N)=O)NC1=O | < 0.01 µM |
| C[C@H](N)C(=O)N[C@@H](CS)C(=O)N[C@@H](CC(=O)O)C(=O)N[C@@H](Cc1c[nH]c2ccccc12)C(=O)N[C@@H](CS)C(=O)N[C@@H](CS)C(=O)N[C@@H](Cc1ccc(O)cc1)C(=O)N[C@@H](Cc1c[nH]c2ccccc12)C(=O)N[C@@H](CS)C(=O)N[C@H](C(=O)N[C@@H](Cc1ccccc1)C(=O)NCC(N)=O)[C@@H](C)O (H-ACDWCCYWCTFG-NH2) | > 1 µM |
| CC(=O)N[C@H]1CCSC[C@H](C(=O)N[C@@H](Cc2ccc(O)cc2)C(=O)N[C@@H](Cc2c[nH]c3ccccc23)C(=O)N[C@@H](CCC(C)C)C(=O)N[C@@H](CCC(=O)O)C(=O)N[C@@H](CC(N)=O)C(=O)NCC(N)=O)NC(=O)[C@H](CCC(N)=O)NC(=O)[C@H](Cc2c[nH]c3ccccc23)NC(=O)[C@H]([C@@H](C)O)NC(=O)[C@H](CCC(N)=O)NC1=O | > 1 µM |
| CC(=O)N[C@@H](CS)C(=O)N[C@@H](C)C(=O)N[C@@H](CC(=O)O)C(=O)N[C@@H](Cc1c[nH]c2ccccc12)C(=O)N[C@H](C(=O)N[C@@H](CS)C(=O)N[C@@H](Cc1ccc(O)cc1)C(=O)N[C@@H](Cc1cccc2ccccc12)C(=O)N[C@@H](Cc1cnc[nH]1)C(=O)NCCOCCC(N)=O)C(C)C | > 1 µM |

Next, consider the following compound.
Exam item: Item CC(=O)N[C@@H](CS)C(=O)N[C@@H](CCC(N)=O)C(=O)N[C@H](C(=O)N[C@@H](Cc1c[nH]c2ccccc12)C(=O)N[C@@H](CCC(N)=O)C(=O)N[C@@H](CS)C(=O)N(C)[C@@H](Cc1ccc(O)cc1)C(=O)N[C@@H](Cc1c[nH]c2ccccc12)C(=O)N[C@@H](CCC(C)C)C(=O)N[C@@H](CCC(=O)O)C(=O)N[C@@H](CC(N)=O)C(=O)NCC(N)=O)[C@@H](C)O with UniProtKB Q5VWK5 - IC50?
Marked response: > 30 µM

====

biological target: Interleukin-23 receptor (Homo sapiens, UniProt Q5VWK5); test: Inhibition of interleukin-23 receptor in human DB cells assessed as reduction in IL-23-stimulated STAT3 phosphorylation incubated for 30 mins by HTRF assay; type: cell-based
pIC50: −log10 of the molar value.
pIC50 listing for selected compounds.

Some solved entries appear below for comparison.
| compound | pIC50 |
| --- | --- |
| CC(=O)NCCCC[C@H](NC(=O)[C@H](CCCN)NC(=O)[C@H](Cc1ccc2ccccc2c1)NC(=O)[C@H](Cc1ccc(OCCN)cc1)NC(=O)[C@@H]1CSCC[C@H](NC(C)=O)C(=O)N[C@@H](CCC(N)=O)C(=O)N[C@@H]([C@@H](C)O)C(=O)N[C@@H](Cc2c[nH]c3ccccc23)C(=O)N[C@@H](CCC(N)=O)C(=O)N1)C(=O)N[C@@H](CC(N)=O)C(=O)NCC(N)=O | 7.60 to 8.00 |
| CC(=O)NCCCC[C@](C)(NC(=O)[C@H](Cc1ccc2ccccc2c1)NC(=O)[C@H](Cc1ccc(OCCNC(C)=O)cc1)NC(=O)[C@@H](NC(=O)[C@H](CCC(N)=O)NC(=O)[C@H](Cc1c[nH]c2ccccc12)NC(=O)[C@@H](NC(=O)[C@H](CCC(N)=O)NC(=O)[C@@H](NC(C)=O)C(C)(C)S)[C@@H](C)O)C(C)(C)S)C(=O)N[C@@H](CCC(=O)O)C(=O)N[C@@H](CC(N)=O)C(=O)NCC(N)=O | > 8.00 |
| CC(=O)NCCCC[C@H](NC(=O)[C@](C)(CCCN)NC(=O)[C@H](Cc1ccc2ccccc2c1)NC(=O)[C@H](Cc1ccc2ccccc2c1)NC(=O)[C@@H]1CSCC[C@H](NC(C)=O)C(=O)N[C@@H](CCC(N)=O)C(=O)N[C@@H]([C@@H](C)O)C(=O)N[C@@H](Cc2c[nH]c3ccccc23)C(=O)N[C@@H](CCC(N)=O)C(=O)N1)C(=O)N[C@@H](CC(N)=O)C(=O)NCC(N)=O | > 8.00 |
| CC(=O)NCCCC[C@H](NC(=O)[C@](C)(CCCCN)NC(=O)[C@H](Cc1c[nH]c2ccccc12)NC(=O)[C@H](Cc1ccc(OCCN)cc1)NC(=O)[C@@H]1CSCC[C@H](NC(C)=O)C(=O)N[C@@H](CCC(N)=O)C(=O)N[C@@H]([C@@H](C)O)C(=O)N[C@@H](Cc2c[nH]c3ccccc23)C(=O)N[C@@H](CCC(N)=O)C(=O)N1)C(=O)NC1CNC(=O)CNC1=O (stereo partly specified) | > 8.00 |
| COc1ccc(C[C@H](NC(=O)[C@@H](NC(=O)[C@H](CCC(N)=O)NC(=O)[C@H](Cc2c[nH]c3ccccc23)NC(=O)[C@@H](NC(=O)[C@H](CC(N)=O)NC(=O)[C@@H](NC(C)=O)C(C)(C)S)[C@@H](C)O)C(C)(C)S)C(=O)N[C@@H](Cc2ccc3ccccc3c2)C(=O)N[C@@H](CCC(C)C)C(=O)N[C@@H](CCCCNC(C)=O)C(=O)N[C@@H](CC(N)=O)C(=O)NCCC(N)=O)cc1 | > 8.00 |

Exam item: Which pIC50 is reported for this compound? COc1ccc(C[C@H](NC(=O)[C@H]2NC(=O)[C@H](CCC(N)=O)NC(=O)[C@H](Cc3c[nH]c4ccccc34)NC(=O)[C@H]([C@@H](C)O)NC(=O)[C@H](CCC(N)=O)NC(=O)[C@@H](NC(C)=O)CCSC2(C)C)C(=O)N[C@@H](Cc2ccc3ccccc3c2)C(=O)N[C@@](C)(CCCCN)C(=O)N[C@@H](CCC(=O)O)C(=O)N[C@@H](CC(N)=O)C(=O)NCC(N)=O)cc1
Marked response: 7.00 to 7.60

Exam item: Entry to check: COc1ccc(C[C@H](NC(=O)[C@@H]2CSCC[C@H](NC(C)=O)C(=O)N[C@@H](CCC(N)=O)C(=O)N[C@@H]([C@@H](C)O)C(=O)N[C@@H](Cc3c[nH]c4ccccc34)C(=O)N[C@@H](CCC(N)=O)C(=O)N2)C(=O)N[C@@H](Cc2c[nH]c3ccccc23)C(=O)N[C@@](C)(CCCCN)C(=O)N[C@@H](CCCCNC(C)=O)C(=O)N[C@@H](CC(N)=O)C(=O)NCC(N)=O)cc1
Marked response: 7.60 to 8.00

Exam item: Entry to check: CC(=O)N[C@H](C(=O)N[C@@H](CCC(N)=O)C(=O)N[C@H](C(=O)N[C@@H](Cc1c[nH]c2ccccc12)C(=O)N[C@@H](CCC(N)=O)C(=O)N[C@H](C(=O)N[C@@H](Cc1ccc(OCCN)cc1)C(=O)N[C@@H](Cc1ccc2ccccc2c1)C(=O)N[C@@](C)(CCCCN)C(=O)N[C@@H](CCC(=O)O)C(=O)N[C@@H](CC(N)=O)C(=O)NCC(N)=O)C(C)(C)S)[C@@H](C)O)C(C)(C)S
Marked response: > 8.00
